In this section we review reported pEC50 values for a set of molecules.
- target_or_system: hSTING (Homo sapiens, UniProt Q86WV6, G230A/H232R/R293Q/R71H)
- Sequence (Q86WV6 whole entry R71H/G230A/H232R/R293Q): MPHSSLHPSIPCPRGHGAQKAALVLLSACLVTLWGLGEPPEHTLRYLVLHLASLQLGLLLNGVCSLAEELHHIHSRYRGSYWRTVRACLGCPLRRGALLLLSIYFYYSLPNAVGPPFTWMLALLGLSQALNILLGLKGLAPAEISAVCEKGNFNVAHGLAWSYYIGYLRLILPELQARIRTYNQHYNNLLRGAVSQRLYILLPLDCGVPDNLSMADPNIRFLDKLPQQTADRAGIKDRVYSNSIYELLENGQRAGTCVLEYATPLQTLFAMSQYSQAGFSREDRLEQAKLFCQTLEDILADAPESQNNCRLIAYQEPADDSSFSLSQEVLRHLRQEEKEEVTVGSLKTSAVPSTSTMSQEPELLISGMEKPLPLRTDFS
- assay: STING reporter assay (luciferase reporter) in THP1-Dual KO-IFNAR2 cells activated with 2′3′cGAMP
- particulars: 15 μM 2′3′cGAMP, 24 h, luciferase reporter activity
pEC50: −log10 of the molar value.

- molecule: "O=C(Nc1c[nH]c2ncccc12)NC1CCCC(c2ccccc2)C1 (stereo not shown) [Compound 304]"
  pEC50: "4.00 to 5.30"
- molecule: "O=C(Nc1ccc(C2CCCCC2)nc1)Nc1c[nH]c2cccnc12 [Compound 331]"
  pEC50: "5.30 to 6.00"
- molecule: "O=C(Nc1c[nH]c2cccnc12)NC1CCC(c2ccccc2)CC1 (stereo not shown) [Compound 325]"
  pEC50: "4.00 to 5.30"
- molecule: "O=C(Nc1ccc(C(F)(F)F)nc1)Nc1c[nH]c2ncccc12 [Compound 257]"
  pEC50: "4.00 to 5.30"
- molecule: "O=C(Nc1c[nH]c2cccnc12)NC1CC2CCC(C2)C1 (stereo not shown) [Compound 157]"
  pEC50: "4.00 to 5.30"
- molecule: "N#Cc1cnc2[nH]cc(NC(=O)Nc3ccc(C(F)(F)F)cc3)c2c1 [Compound 151]"
  pEC50: "6.00 to 6.70"
- molecule: "O=C(Nc1ccc(C(F)(F)F)cc1)Nc1c[nH]c2ncc(-c3ccc(N4CCOCC4)nc3)cc12 [Compound 188]"
  pEC50: "4.00 to 5.30"
- molecule: "O=C(Nc1c[nH]c2ncc(F)cc12)NC1CCN(CC(F)(F)F)CC1 [Compound 252]"
  pEC50: "4.00 to 5.30"
- molecule: "O=C(Nc1ccc(C(F)(F)F)cn1)Nc1c[nH]c2ccncc12 [Compound 319]"
  pEC50: "5.30 to 6.00"
- molecule: "O=C(Nc1ccc(C(F)(F)F)cc1)Nc1c[nH]c2nccc(-c3ccncc3)c12 [Compound 206]"
  pEC50: "4.00 to 5.30"
- molecule: "Cc1nc2cc(NC(=O)Nc3c[nH]c4ncc(F)cc34)ccc2s1 [Compound 286]"
  pEC50: "5.30 to 6.00"
- molecule: "C#Cc1cccc(NC(=O)Nc2c[nH]c3ncc(F)cc23)c1 [Compound 251]"
  pEC50: "6.00 to 6.70"
- molecule: "O=C(Nc1c[nH]c2ccncc12)NC1CCC(c2ccccc2)CC1 (stereo not shown) [Compound 321]"
  pEC50: "4.00 to 5.30"
- molecule: "O=C(Nc1ccc(C2CCCCC2)nc1)Nc1c[nH]c2ncc(F)cc12 [Compound 272]"
  pEC50: "6.70 to 7.40"
- molecule: "O=S(=O)(Nc1ccc(C(F)(F)F)cc1)Nc1c[nH]c2ncc(F)cc12 [Compound 337]"
  pEC50: "4.00 to 5.30"
- molecule: "CCCCc1ccc(N(C)C(=O)Nc2c[nH]c3ncc(F)cc23)cc1 [Compound 246]"
  pEC50: "5.30 to 6.00"
- molecule: "O=C(Nc1c[nH]c2ncccc12)NC1CC2CCC(C2)C1 (stereo not shown) [Compound 160]"
  pEC50: "4.00 to 5.30"
- molecule: "CCCCC1CCC(NC(=O)Nc2c[nH]c3cnccc23)CC1 (stereo not shown) [Compound 314]"
  pEC50: "5.30 to 6.00"
- molecule: "O=C(Nc1cccc(C(F)(F)F)c1)Nc1c[nH]c2cccnc12 [Compound 332]"
  pEC50: "5.30 to 6.00"
- molecule: "O=C(Nc1ccc(C(F)(F)F)cc1)Nc1c[nH]c2ncc(-c3ccccc3)cc12 [Compound 143]"
  pEC50: "5.30 to 6.00"
- molecule: "O=C(Nc1c[nH]c2cccnc12)N1CCC2(CCCC2)CC1 [Compound 159]"
  pEC50: "4.00 to 5.30"
- molecule: "O=C(Nc1c[nH]c2ncccc12)N1CC(c2ccccc2)C1 [Compound 289]"
  pEC50: "4.00 to 5.30"
- molecule: "CC(c1ccc(-c2cnc3[nH]cc(NC(=O)Nc4ccc(C(F)(F)F)cc4)c3c2)cc1)N(C)C (stereo not shown) [Compound 196]"
  pEC50: "4.00 to 5.30"
- molecule: "O=C(Nc1cccc(C(F)(F)F)c1)Nc1c[nH]c2ncc(F)cc12 [Compound 297]"
  pEC50: "6.00 to 6.70"
- molecule: "O=C(Nc1ccc(C(F)(F)F)cc1)Nc1c[nH]c2ncc(C3CCCCC3)cc12 [Compound 267]"
  pEC50: "5.30 to 6.00"
- molecule: "O=C(Nc1c[nH]c2ccncc12)NC1CC2CCC(C2)C1 (stereo not shown) [Compound 161]"
  pEC50: "4.00 to 5.30"
- molecule: "O=C(Nc1cccc(C(F)(F)F)c1)Nc1c[nH]c2ncccc12 [Compound 150]"
  pEC50: "5.30 to 6.00"
- molecule: "O=C(Nc1c[nH]c2ncc(F)cc12)NC1CCC2(CCC2)CC1 [Compound 247]"
  pEC50: "5.30 to 6.00"
- molecule: "O=C(Nc1c[nH]c2ncccc12)NC1CCC(c2ccccc2)CC1 (stereo not shown) [Compound 166]"
  pEC50: "6.00 to 6.70"
- molecule: "O=C(Nc1ccc(C(F)(F)F)nc1)Nc1c[nH]c2cccnc12 [Compound 156]"
  pEC50: "4.00 to 5.30"
- molecule: "O=C(Nc1c[nH]c2ccc(-c3ccccc3)nc12)NC1CCC(C(F)(F)F)CC1 (stereo not shown) [Compound 335]"
  pEC50: "5.30 to 6.00"
- molecule: "CCc1ccc(NC(=O)Nc2c[nH]c3ncncc23)cc1 [Compound 183b]"
  pEC50: "4.00 to 5.30"
- molecule: "COc1nccc2[nH]cc(NC(=O)Nc3ccc(C(F)(F)F)cc3)c12 [Compound 320]"
  pEC50: "4.00 to 5.30"
- molecule: "CCc1ccc(NC(=O)Nc2c[nH]c3ncccc23)nc1 [Compound 169]"
  pEC50: "4.00 to 5.30"
- molecule: "O=C(Nc1cccc(C2CCCCC2)n1)Nc1c[nH]c2ncc(F)cc12 [Compound 260]"
  pEC50: "5.30 to 6.00"
- molecule: "CCc1cnc(NC(=O)Nc2c[nH]c3ncccc23)s1 [Compound 168]"
  pEC50: "4.00 to 5.30"
- molecule: "O=C(Nc1cc(F)cc(F)c1)Nc1c[nH]c2ncc(F)cc12 [Compound 298]"
  pEC50: "5.30 to 6.00"
